Assign chromatographic logP to each entry below.
EXPERIMENT_DESCRIPTION: LogP-Value (HCOOH)
Type: physicochemical
MEASUREMENT_CONDITIONS: HCOOH (formic acid)
Form rule: numeric answer, no unit written next to it.

## Task Specify measured chromatographic logP for Fc1cc(CN2CCN/C2=C\C(=S)C(F)(F)F)cnc1Cl .
## Result 2.59

## Task Specify measured chromatographic logP for Fc1cc(CN2CCS/C2=C\C(=S)C(F)(F)F)cnc1Cl .
## Result 1.2

## Task Specify measured chromatographic logP for O=C(/C=C1\NCCN1Cc1cnc(Cl)c(F)c1)C(F)(F)F .
## Result 2.19

## Task Specify measured chromatographic logP for O=C(/C=C1\SCCN1Cc1cnc(Cl)c(F)c1)C(F)(F)F .
## Result 2.47
